# Measured on: Feline FcRn complex (FcRn-alpha subunit and beta-microglobulin) (feline)
# Assay: SPR (Biacore), feline FcRn captured on SA chip, IgG flowed over, pH 7.4
Each record here notes measured pKd.
// pKd here means minus log10 of the molar concentration (mol/L)

# Binder, Experimental endpoint, Reported result
records = [
    ("feline IgG1a Fc mutant S428L, S434H (antibody, part only; not given: Variable domains, not shown: another chain or arm of the molecule; small tags and cut ends) constant: ASTTAPSVFPLAPSCGTTSGATVALACLVLGYFPEPVTVSWNSGALTSGVHTFPAVLQASGLYSLSSMVTVPSSRWLSDTFTCNVAHPPSNTKVDKTVRKTDHPPGPKPCDCPKCPPPEMLGGPSIFIFPPKPKDTLSISRTPEVTCLVVDLGPDDSDVQITWFVDNTQVYTAKTSPREEQFNSTYRVVSVLPILHQDWLKGKEFKCKVNSKSLPSPIERTISKAKGQPHEPQVYVLPPAQEELSRNKVSVTCLIKSFHPPDIAVEWEITGQPEPENNYRTTPPQLDSDGTYFVYSKLSVDRSHWQRGNTYTCSVLHEALHHHHTQKSLTQSPGK", "pKd", 7.36),
]

Now, please, on to the next binder.
Problem: Report pKd for feline IgG1a Fc mutant S428M, S434W (antibody, part only; not given: Variable domains, not shown: another chain or arm of the molecule; small tags and cut ends) constant: ASTTAPSVFPLAPSCGTTSGATVALACLVLGYFPEPVTVSWNSGALTSGVHTFPAVLQASGLYSLSSMVTVPSSRWLSDTFTCNVAHPPSNTKVDKTVRKTDHPPGPKPCDCPKCPPPEMLGGPSIFIFPPKPKDTLSISRTPEVTCLVVDLGPDDSDVQITWFVDNTQVYTAKTSPREEQFNSTYRVVSVLPILHQDWLKGKEFKCKVNSKSLPSPIERTISKAKGQPHEPQVYVLPPAQEELSRNKVSVTCLIKSFHPPDIAVEWEITGQPEPENNYRTTPPQLDSDGTYFVYSKLSVDRSHWQRGNTYTCSVMHEALHWHHTQKSLTQSPGK
Solution: 7.60

All figures here come from patent US20240400708A1.
